Provenance of the data: ChEMBL document CHEMBL4017456

experiment: in vivo; conditions: Sprague-Dawley, rat, plasma, po, 2 mg/kg
ATTRIBUTE_MEASURED: Tmax (h)
Provide the reading as a plain figure in h.

# input molecule: N[C@@H]1CCC=C(c2ccc(F)cc2)[C@H]1COc1cc(F)c(S(=O)(=O)Nc2cscn2)cc1Cl ; wanted: its Tmax
1.7

###

experiment: Half life in Sprague-Dawley rat plasma at 1 mg/kg, iv administered as single bolus dose by LC-MS/MS analysis; format: ADME, organism-based
ATTRIBUTE_MEASURED: half-life (h)
Provide the reading as a plain figure in h.

# input compound: O=S(=O)(Nc1cscn1)c1cc(Cl)c(OCC2NCCC=C2c2ccc(F)cc2)cc1F (stereo unspecified) ; wanted: its half-life
2.7

###

test: Clearance in Sprague-Dawley rat at 1 mg/kg, iv administered as single bolus dose by LC-MS/MS analysis; type: ADME, organism-based; conditions: in vivo
ATTRIBUTE_MEASURED: clearance (mL/min/kg)
Provide the reading as a plain figure in mL/min/kg.

# input molecule: O=S(=O)(Nc1cscn1)c1cc(Cl)c(OCC2NCCC=C2c2ccc(F)cc2)cc1F (stereo unspecified) ; wanted: its clearance
4.5

###

tested on: Plasma; experiment: Plasma concentration in Sprague-Dawley rat at 100 mg/kg administered via oral gavage by LC-MS/MS method; type: ADME, organism-based; conditions: in vivo
ATTRIBUTE_MEASURED: concentration (µM)
Provide the reading as a plain figure in µM.

[[record]]
molecule = "O=S(=O)(Nc1cscn1)c1cc(Cl)c(OC[C@H]2NCCC=C2c2ccc(F)cc2)cc1F"
data_value = 82.1


Now, please, on to the next molecule.
# input molecule: Nc1[nH]ncc1-c1cc(Cl)ccc1Oc1cc(F)c(S(=O)(=O)Nc2cscn2)cc1Cl [PF-05089771] ; wanted: its concentration
55.8

###

assay: in vivo; settings: Sprague-Dawley, rat, plasma, po, 10 mg/kg
ATTRIBUTE_MEASURED: bioavailability (%)
Provide the reading as a plain figure in %.

# input compound: O=S(=O)(Nc1cscn1)c1cc(Cl)c(OCC2NCCC=C2c2ccc(F)cc2)cc1F (stereo unspecified) ; wanted: its bioavailability
64.8

###

experiment: in vitro; conditions: human, Caco-2
ATTRIBUTE_MEASURED: Papp A→B (×10⁻⁶ cm/s)
Provide the reading as a plain figure in ×10⁻⁶ cm/s.

# input compound: O=S(=O)(Nc1cscn1)c1cc(Cl)c(OCC2NCCC=C2c2ccc(F)cc2)cc1F (stereo unspecified) ; wanted: its Papp A→B
3.2

###

assay: in vivo; conditions: Sprague-Dawley, rat, plasma, po, 10 mg/kg
ATTRIBUTE_MEASURED: Tmax (h)
Provide the reading as a plain figure in h.

# input compound: O=S(=O)(Nc1cscn1)c1cc(Cl)c(OCC2NCCC=C2c2ccc(F)cc2)cc1F (stereo unspecified) ; wanted: its Tmax
3.8

###

assay: in vivo; conditions: Sprague-Dawley, rat, iv, 0.5 mg/kg
ATTRIBUTE_MEASURED: AUC(0-t) (µM·h)
Provide the reading as a plain figure in µM·h.

# input molecule: N[C@@H]1CCC=C(c2ccc(F)cc2)[C@H]1COc1cc(F)c(S(=O)(=O)Nc2cscn2)cc1Cl ; wanted: its AUC(0-t)
0.34

###

test: in vivo; settings: Sprague-Dawley, rat, plasma, po, 2 mg/kg
ATTRIBUTE_MEASURED: bioavailability
Form field: result (number plus unit)

# input compound: N[C@@H]1CCC=C(c2ccc(F)cc2)[C@H]1COc1cc(F)c(S(=O)(=O)Nc2cscn2)cc1Cl ; wanted: its bioavailability
18.4%

###

assay: Ratio of drug level in brain to plasma in Sprague-Dawley rat at 0.5 mg/kg, iv or 2 mg/kg, po by LC-MS/MS analysis; format: ADME, organism-based; conditions: read-out: BPR
ATTRIBUTE_MEASURED: Kp
I only need the number, thanks.

# input compound: N[C@@H]1CCC=C(c2ccc(F)cc2)[C@H]1COc1cc(F)c(S(=O)(=O)Nc2cscn2)cc1Cl ; wanted: its Kp
0.26

###

experiment: in vivo; settings: Sprague-Dawley, rat, iv, 0.5 mg/kg
ATTRIBUTE_MEASURED: clearance (mL/min/kg)
Provide the reading as a plain figure in mL/min/kg.

# input molecule: N[C@@H]1CCC=C(c2ccc(F)cc2)[C@H]1COc1cc(F)c(S(=O)(=O)Nc2cscn2)cc1Cl ; wanted: its clearance
39.2
